These measurements were taken from patent US20040049072A1.

Target: RXRα:RAR heterodimer (Homo sapiens)
Construct: expressed in transfected cells; host or cells: CV-1 cells
Experiment: RXR:RAR heterodimer co-transfection assay in CV-1 cells
Assay type: cell-based
Conditions: CV-1, read-out: RXR:RAR CV-1 (%) Ag.
measured parameter: Emax (%)
One number for each entry, in %.

As a guide, the following entries are already answered.
molecule	unit	Emax
C/C(=C/C=C/C(C)=C/C(=O)O)c1cc(-c2ccccc2F)cc(C(C)C)c1OCC(F)F [Compound L19]	%	2
CCCOc1c(/C(C)=C/C=C/C(C)=C/C(=O)O)cc(C(C)(C)C)cc1C(C)(C)C [Compound L3]	%	5

Give one value of Emax per listed molecule.
1. CCOc1c(\C(C)=C/C=C/C(C)=C/C(=O)O)cc(C(F)(F)C(F)(F)F)cc1C(C)C [Compound L15]
2. C/C(=C/C=C/C(C)=C/C(=O)O)c1cc(C(C)(C)C)cc(C(C)(C)C)c1OCC(F)(F)F [Compound L23]
3. COc1c(/C(C)=C/C=C/C(C)=C/C(=O)O)cc(C(C)(C)C)cc1C(C)(C)C [Compound L1]
4. CCC(C)(C)c1cc(\C(C)=C/C=C/C(C)=C/C(=O)O)c(OCC(F)F)c(C(C)(C)CC)c1 [Compound L18]

1
7
21
1

----------
Target: RXRα:RAR heterodimer (Homo sapiens, UniProt P19793)
Construct: expressed in transfected cells; host or cells: CV-1 cells
Assay: RXR:RAR heterodimer co-transfection assay in CV-1 cells
Type: cell-based
Details: relative to maximal repression (100%) in presence of 10 nM TTNPB
Experimental: For determination of agonist activity in the context of the RXR:RAR heterodimer or the RXR:PPARγ heterodimer, media containing compounds of the present invention in concentrations ranging from 10^−10 to 10^−5 M were added to the cells. Compounds of the present invention were also tested for the ability to synergize with a PPARγ agonist in the context of an RXR heterodimer. […] Antagonist efficacy was determined as a function (%) of maximal inhibition. […]
Threshold rule: RXRα:RAR Heterodimer Cotransfection Assay Antagonist Efficacy (%) greater than or equal to 70% is rule met; below that, rule not met.

Would you please look over these solved cases?
CCOc1c(/C(C)=C/C=C/C(C)=C/C(=O)O)cc(C(C)(C)C)cc1C(C)(C)C rule not met
COc1c(/C(C)=C/C=C/C(C)=C/C(=O)O)cc(C(C)(C)C)cc1C(C)(C)C rule not met
CCCOc1c(/C(C)=C/C=C/C(C)=C/C(=O)O)cc(C(C)(C)C)cc1C(C)(C)C rule met

Kindly consider the entry below.
In plain terms: is recorded RXRα:RAR Heterodimer Cotransfection Assay Antagonist Efficacy (%) at least 70% for `CCCCOc1c(/C(C)=C/C=C/C(C)=C/C(=O)O)cc(C(C)(C)C)cc1C(C)(C)C` ?
rule met

----------
Target: RXRα homodimer (RXR:RXR) (Homo sapiens, UniProt P19793)
Sequence (P19793 whole entry): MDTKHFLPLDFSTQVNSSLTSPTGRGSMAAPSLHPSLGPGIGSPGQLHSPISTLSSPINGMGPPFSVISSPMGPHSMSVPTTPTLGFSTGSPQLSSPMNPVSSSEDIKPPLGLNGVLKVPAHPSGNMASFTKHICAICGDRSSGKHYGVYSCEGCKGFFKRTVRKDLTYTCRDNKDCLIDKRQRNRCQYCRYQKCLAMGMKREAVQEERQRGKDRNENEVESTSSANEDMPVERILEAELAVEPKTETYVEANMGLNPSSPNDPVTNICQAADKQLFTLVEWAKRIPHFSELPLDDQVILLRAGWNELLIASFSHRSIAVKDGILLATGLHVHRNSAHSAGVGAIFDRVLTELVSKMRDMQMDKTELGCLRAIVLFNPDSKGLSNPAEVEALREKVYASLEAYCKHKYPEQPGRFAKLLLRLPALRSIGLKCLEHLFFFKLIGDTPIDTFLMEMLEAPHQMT
Assay: RXR homodimer co-transfection assay in CV-1 cells
Format: cell-based
Settings: maximal response relative to ATRA
Provide the recorded RXR:RXR CV-1 (%) Ag. for the entries that follow.
Numbers only, in %.

As a guide, the following entries are already answered.
molecule	experimental system	endpoint value
CCCCCCCOc1c(/C(C)=C/C=C/C(C)=C/C(=O)O)cc(C(C)(C)C)cc1C(C)(C)C [Compound L5]	RXRα homodimer (RXR:RXR) (Homo sapiens, UniProt P19793)	0
CCCOc1c(/C(C)=C/C=C/C(C)=C/C(=O)O)cc(C(C)(C)C)cc1C(C)(C)C [Compound L3]	RXRα homodimer (RXR:RXR) (Homo sapiens, UniProt P19793)	2
CCCCOc1c(/C(C)=C/C=C/C(C)=C/C(=O)O)cc(C(C)(C)C)cc1C(C)(C)C [Compound L4]	RXRα homodimer (RXR:RXR) (Homo sapiens, UniProt P19793)	1
COc1c(/C(C)=C/C=C/C(C)=C/C(=O)O)cc(C(C)(C)C)cc1C(C)(C)C [Compound L1]	RXRα homodimer (RXR:RXR) (Homo sapiens, UniProt P19793)	62

Attention now turns to another entry.
Please give the documented RXR:RXR CV-1 (%) Ag. of CCOc1c(/C(C)=C/C=C/C(C)=C/C(=O)O)cc(C(C)(C)C)cc1C(C)(C)C [Compound L2]
11
